TARGET: human cloned 5-HT6 receptors (Homo sapiens, UniProt P50406)
Construct: expressed in transfected cells; host or cells: Hela cells
Sequence (P50406 whole entry): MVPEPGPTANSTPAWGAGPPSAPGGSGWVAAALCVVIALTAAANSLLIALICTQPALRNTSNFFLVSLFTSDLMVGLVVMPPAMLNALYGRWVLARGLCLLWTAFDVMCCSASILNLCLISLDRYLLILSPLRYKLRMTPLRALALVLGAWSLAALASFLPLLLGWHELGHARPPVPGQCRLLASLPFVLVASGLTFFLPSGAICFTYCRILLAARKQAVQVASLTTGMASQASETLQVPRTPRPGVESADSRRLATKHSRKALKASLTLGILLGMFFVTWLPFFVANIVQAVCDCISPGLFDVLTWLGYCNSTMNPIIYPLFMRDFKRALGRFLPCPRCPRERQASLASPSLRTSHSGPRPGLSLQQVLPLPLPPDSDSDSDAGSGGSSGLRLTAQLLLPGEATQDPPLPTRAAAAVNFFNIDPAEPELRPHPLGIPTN
PROTOCOL DESCRIPTION: 5-HT6 binding affinity, [3H]-LSD displacement on membranes of Hela cells expressing human cloned 5-HT6 receptors
MEASUREMENT SETUP: read-out: 5-HT6 Binding Ki
Catalogue of pKi readings, one per entry.
pKi (log units): -log10 of the concentration in mol/L.

Look over these answered cases.
MOLECULE: NCCc1cn(S(=O)(=O)c2c(Cl)nc3ccccn23)c2ncccc12
TARGET: human cloned 5-HT6 receptors (Homo sapiens, UniProt P50406)
pKi: 7.60

MOLECULE: CC(C)(C)c1ccc(S(=O)(=O)n2cc(CCN)c3cccnc32)cc1
TARGET: human cloned 5-HT6 receptors (Homo sapiens, UniProt P50406)
pKi: 6.94

Reported human cloned 5-HT6 receptors (Homo sapiens, UniProt P50406) pKi for item "NCCc1cn(S(=O)(=O)c2ccccc2F)c2ncccc12" was 7.41

Summary line: "Cc1cccc(S(=O)(=O)n2cc(CCN)c3cnccc32)c1" , human cloned 5-HT6 receptors (Homo sapiens, UniProt P50406), reported pKi = 6.82

Reported pKi (human cloned 5-HT6 receptors (Homo sapiens, UniProt P50406)) for entry "NCCc1cn(S(=O)(=O)c2cc(Br)c(Cl)s2)c2ncccc12" is 7.79

pKi of "COc1ccc(S(=O)(=O)n2cc(CCN)c3cccnc32)cc1OC" , assay on human cloned 5-HT6 receptors (Homo sapiens, UniProt P50406), is 6.97

pKi for human cloned 5-HT6 receptors (Homo sapiens, UniProt P50406) with input "NCCc1cn(S(=O)(=O)c2c(Cl)sc(Cl)c2Br)c2ncccc12" equals 7.40

Item: "NCCc1cn(S(=O)(=O)c2ccc(Cl)s2)c2cccnc12" | System: human cloned 5-HT6 receptors (Homo sapiens, UniProt P50406) | pKi: 8.70

GET /values?item= "NCCc1cn(S(=O)(=O)c2c(Cl)nc3sc(Cl)cn23)c2ncccc12" &system= human cloned 5-HT6 receptors (Homo sapiens, UniProt P50406) returns pKi: 7.04

Note to self: pKi of "NCCc1cn(S(=O)(=O)c2cccc(F)c2)c2ccncc12" with human cloned 5-HT6 receptors (Homo sapiens, UniProt P50406) was 6.77

Kindly note: human cloned 5-HT6 receptors (Homo sapiens, UniProt P50406), "NCCc1cn(S(=O)(=O)c2cc(Cl)sc2Cl)c2ncccc12" , pKi value reported: 7.28

Entry "CN(C)CCc1cn(S(=O)(=O)c2ccc3ccccc3c2)c2ncccc12" : pKi on human cloned 5-HT6 receptors (Homo sapiens, UniProt P50406) = 7.71

# "COc1cccc(S(=O)(=O)n2cc(CCN)c3cnccc32)c1" with human cloned 5-HT6 receptors (Homo sapiens, UniProt P50406): pKi is 6.70

Item "NCCc1cn(S(=O)(=O)c2ccccc2)c2ncccc12" was tested on human cloned 5-HT6 receptors (Homo sapiens, UniProt P50406); the reported pKi is 7.37

Let me check: "NCCc1cn(S(=O)(=O)c2cccc3nsnc23)c2ncccc12" , system human cloned 5-HT6 receptors (Homo sapiens, UniProt P50406), measured pKi is 7.16

Case "COc1ccc(Cl)cc1S(=O)(=O)n1cc(CCN)c2cccnc21" , human cloned 5-HT6 receptors (Homo sapiens, UniProt P50406), pKi recorded as 6.73

Item "NCCc1cn(S(=O)(=O)c2cccc(C(F)(F)F)c2)c2ccncc12" was tested on human cloned 5-HT6 receptors (Homo sapiens, UniProt P50406); the reported pKi is 6.76

Summary: "NCCc1cn(S(=O)(=O)c2ccc(F)cc2F)c2ncccc12" , human cloned 5-HT6 receptors (Homo sapiens, UniProt P50406), pKi = 6.95

Field pKi (human cloned 5-HT6 receptors (Homo sapiens, UniProt P50406)), entry "NCCc1cn(S(=O)(=O)c2cccc(Cl)c2)c2ccncc12" : 6.96

Simply: "NCCc1cn(S(=O)(=O)c2cccc3nonc23)c2ncccc12" , human cloned 5-HT6 receptors (Homo sapiens, UniProt P50406), pKi = 7.37

# lookup: "NCCc1cn(S(=O)(=O)c2ccccc2)c2ccncc12" on human cloned 5-HT6 receptors (Homo sapiens, UniProt P50406), pKi = 6.78

Tested system human cloned 5-HT6 receptors (Homo sapiens, UniProt P50406); pKi recorded for "NCCc1cn(S(=O)(=O)c2ccccc2)c2cccnc12" was 8.35

human cloned 5-HT6 receptors (Homo sapiens, UniProt P50406) pKi of "NCCc1cn(S(=O)(=O)c2cccc(Cl)c2)c2cccnc12" is 8.80

Measured pKi for this entry "NCCc1cn(S(=O)(=O)c2cccc(Br)c2)c2cccnc12" on human cloned 5-HT6 receptors (Homo sapiens, UniProt P50406): 8.46

----------
TARGET: human cloned 5-HT6 receptors (Homo sapiens, UniProt P50406)
Construct: expressed in transfected cells; host or cells: Hela cells
PROTOCOL DESCRIPTION: 5-HT6 binding affinity, [3H]-LSD displacement on membranes of Hela cells expressing human cloned 5-HT6 receptors
Field: label. Allowed values: 1 (yes) (Ki < 50 nM) or 0 (no) (Ki >= 50 nM).

MOLECULE: CN(C)CCc1cn(S(=O)(=O)c2cc(Cl)sc2Cl)c2ncccc12 [Example 152]
CLASS: 0 (no)
//
MOLECULE: NCCc1cn(S(=O)(=O)c2ccc(F)cc2Cl)c2ncccc12 [Example 110]
CLASS: 1 (yes)
//
MOLECULE: NCCc1cn(S(=O)(=O)c2ccc(Cl)s2)c2ccncc12 [Example 43]
CLASS: 1 (yes)

Q. Ki strictly < 50 nM for this molecule? NCCc1cn(S(=O)(=O)c2ccccc2Cl)c2ncccc12 [Example 120]
A. 1 (yes)

Q. Answer whether the molecule NCCc1cn(S(=O)(=O)c2ccc(N)cc2)c2ncccc12 [Example 83] has Ki strictly less than 50 nM
A. 1 (yes)

Q. Identify whether the molecule NCCc1cn(S(=O)(=O)c2ccc(F)c(F)c2)c2cccnc12 [Example 15] records Ki below 50 nM.
A. 1 (yes)

----------
TARGET: human cloned 5-HT6 receptors (Homo sapiens, UniProt P50406)
Construct: expressed in transfected cells; host or cells: Hela cells
PROTOCOL DESCRIPTION: 5-HT6 binding affinity, [3H]-LSD displacement on membranes of Hela cells expressing human cloned 5-HT6 receptors
Listing of recorded log10 of Ki by entry.
Hey, these are logged values: log10 of Ki, µM being the unit before logging.

Notebook: "COc1cccc(S(=O)(=O)n2cc(CCN)c3cccnc32)c1" , log10 of Ki read as -1.48

Record summary for "NCCc1cn(S(=O)(=O)c2cccc(Cl)c2Cl)c2cccnc12" : reported log10 of Ki = -2.68

// log10 of Ki value for "NCCc1cn(S(=O)(=O)c2ccc(F)c(Cl)c2)c2ncccc12" : -1.21

// field: log10 of Ki; key: "NCCc1cn(S(=O)(=O)c2ccccc2F)c2cccnc12" ; value = -2.28

Record summary for "NCCc1cn(S(=O)(=O)c2ccc3ccccc3c2)c2ncccc12" : reported log10 of Ki = -1.92

Documented log10 of Ki of "Cc1cc(S(=O)(=O)n2cc(CCN)c3cccnc32)c(C)cc1Cl" : -1.75

Entry "NCCc1cn(S(=O)(=O)c2cccc(Cl)c2)c2ncccc12" , log10 of Ki reported as -2.22

Lab note: "CN(C)CCc1cn(S(=O)(=O)c2ccccc2F)c2ncccc12" gave log10 of Ki of -1.33

log10 of Ki in this record for "CN(C)CCc1cn(S(=O)(=O)c2ccc(Cl)s2)c2ncccc12" : -1.89

----------
Examples of compounds with documented Ki follow.
TARGET: human cloned 5-HT6 receptors (Homo sapiens)
Construct: expressed in transfected cells; host or cells: Hela cells
PROTOCOL DESCRIPTION: 5-HT6 binding affinity, [3H]-LSD displacement on membranes of Hela cells expressing human cloned 5-HT6 receptors
Number only, in µM; omit the unit.

Completed entries (count: 5):
COMPOUND: CN(C)CCc1cn(S(=O)(=O)c2ccccc2C(F)(F)F)c2ncccc12 [Example 103]
TARGET: human cloned 5-HT6 receptors (Homo sapiens)
Ki (µM): 0.038

COMPOUND: NCCc1cn(S(=O)(=O)c2c(Cl)nc3sc(Cl)cn23)c2cccnc12 [Example 26]
TARGET: human cloned 5-HT6 receptors (Homo sapiens)
Ki (µM): 0.0073

COMPOUND: CN(C)CCc1cn(S(=O)(=O)c2ccccc2)c2ncccc12 [Example 94]
TARGET: human cloned 5-HT6 receptors (Homo sapiens)
Ki (µM): 0.04

COMPOUND: NCCc1cn(S(=O)(=O)c2cnc3sccn23)c2ccncc12 [Example 39]
TARGET: human cloned 5-HT6 receptors (Homo sapiens)
Ki (µM): 0.047

COMPOUND: NCCc1cn(S(=O)(=O)c2ccc(Cl)s2)c2ncccc12 [Example 129]
TARGET: human cloned 5-HT6 receptors (Homo sapiens)
Ki (µM): 0.0117

The value of Ki measured for the compound Cc1cccc(S(=O)(=O)n2cc(CCN)c3ncccc32)c1 [Example 22] turned out to be 0.0024

Notebook: NCCc1cn(S(=O)(=O)c2c(Cl)nc3sccn23)c2ccncc12 [Example 35] , Ki read as 0.0157

For this compound ( NCCc1cn(S(=O)(=O)c2cc(Cl)c(Cl)s2)c2ncccc12 [Example 131] ), measured Ki is 0.0197

Notebook: NCCc1cn(S(=O)(=O)c2cnc3sccn23)c2cccnc12 [Example 18] , Ki read as 0.0016
